test system: GFP-labeled iPSC-derived human cortical glutamatergic neurons; experiment: cells; conditions: Neuron, 48 h, read-out: Viability AC50 (48hr)

compound: CN[C@@H]1C[C@H]2O[C@@](C)([C@@H]1OC)n1c3ccccc3c3c4c(c5c6ccccc6n2c5c31)C(=O)N[C@H]4O [7-hydroxystaurosporine (UCN-01), 7-hydroxystaurosporine]
AC50 [µM]: 7.92

compound: COc1cc2c(O)c3c(c(-c4ccc5c(c4)OCO5)c2cc1OC)C(=O)OC3 [NCGC00077816-01]
AC50 [µM]: 6.51

compound: C=CC(C1=CC(=O)C(OC)=CC1=O)c1ccc(OC)cc1 (centres unmarked) [NCGC00095719-04]
AC50 [µM]: 1.33

compound: COc1ccc2c(c1OC)C(=O)O[C@@H]2[C@H]1c2cc3c(cc2CCN1C)OCO3 [Hydrastine]
AC50 [µM]: 22.8

compound: O=C(/C=C/c1ccc(O)c(O)c1)OCCc1ccccc1 [Caffeic acid phenethyl ester]
AC50 [µM]: 24.8

* * *

experiment: in vitro; conditions: PAMPA, PAMPA-BBB Pe(10^-6 cm/sec)
endpoint: Papp

compound: O=c1ccc2ccc(O)cc2o1 [UMBELLIFERONE]
result: < 1 ×10⁻⁶ cm/s
//
compound: C/C(=C\C(=O)OCCCCCCCCC(=O)O)C[C@@H]1OC[C@H](C[C@@H]2O[C@H]2[C@@H](C)[C@H](C)O)[C@@H](O)[C@H]1O [MUPIROCIN]
result: < 1 ×10⁻⁶ cm/s
//
compound: C[n+]1cccc(C(=O)[O-])c1 [TRIGONELLINE]
result: < 1 ×10⁻⁶ cm/s
//
compound: COc1cc2c(c(OC)c1OC)-c1ccc(OC)c(=O)cc1[C@@H](NC(C)=O)CC2 [COLCHCINE]
result: < 1 ×10⁻⁶ cm/s
//
compound: Cn1cnc2c1c(=O)[nH]c(=O)n2C [THEOBROMINE]
result: < 1 ×10⁻⁶ cm/s

* * *

Listing of recorded Papp by entry.
assay: in vitro; details: PAMPA, PAMPA-BBB Pe(10^-6 cm/sec)
Where a name gives a salt, the structure may show the parent alone.
endpoint: Papp

molecule: Oc1cc(O)c2c(c1)O[C@H](c1ccc(O)c(O)c1)[C@H](O)C2 [L-EPICATECHIN]
result: < 1 ×10⁻⁶ cm/s

molecule: Cc1ncc(C[n+]2csc(CCO)c2C)c(N)n1 [THIAMINE MONONITRATE]
result: < 1 ×10⁻⁶ cm/s

molecule: CC(C)C/C=C(\C=O)c1ccccc1 [(Z)-5-METHYL-2-PHENYL-HEX-2-ENAL]
result: < 1 ×10⁻⁶ cm/s

molecule: O=C(O)c1cccc(C(=O)O)n1 [D[…]]
result: < 1 ×10⁻⁶ cm/s

molecule: O=c1cccc2n1C[C@@H]1CNC[C@H]2C1 [CYTISINE]
result: < 1 ×10⁻⁶ cm/s

molecule: COc1cc(/C=C/C(N)=O)cc(OC)c1OC [CINTRIAMIDE]
result: 2.3 ×10⁻⁶ cm/s

molecule: CC1=C(C)C(=O)C(CC[C@](C)(O)CCC[C@H](C)CCC[C@H](C)CCCC(C)C)=C(C)C1=O [.ALPHA.-TOCOPHERYLQUINONE]
result: 7.2 ×10⁻⁶ cm/s

molecule: CC[C@]1(O)C[C@@H]2CN(CCc3c([nH]c4ccccc34)[C@@](C(=O)OC)(c3cc4c(cc3OC)N(C)[C@H]3[C@@](O)(C(=O)OC)[C@H](OC(C)=O)[C@]5(CC)C=CCN6CC[C@]43[C@@H]65)C2)C1 [VINBLASTINE]
result: 5.7 ×10⁻⁶ cm/s

molecule: CN1c2c(nc(N)[nH]c2=O)NC[C@@H]1CNc1ccc(C(=O)N[C@@H](CCC(=O)O)C(=O)O)cc1 [LEVOMEFOLATE]
result: < 1 ×10⁻⁶ cm/s

molecule: COc1ccc(/C=C/C(=O)O)cc1OC [3,4-DIMETHOXYCINNAMIC ACID]
result: < 1 ×10⁻⁶ cm/s

molecule: Nc1nc(=O)[nH]c2c1ncn2[C@@H]1O[C@H](CO)[C@@H](O)[C@H]1O [ISOGUANOSINE]
result: < 1 ×10⁻⁶ cm/s

molecule: C[C@]12C=CC(=O)C=C1[C@@H](F)C[C@@H]1[C@@H]2[C@@H](O)C[C@@]2(C)[C@H]1CC[C@]2(O)C(=O)CO [FLUPREDNISOLONE]
result: 1.9 ×10⁻⁶ cm/s

molecule: CO[C@H]1/C=C/O[C@@]2(C)Oc3c(C)c(O)c4c(O)c(c(/C=N/N5CCN(C)CC5)c(O)c4c3C2=O)NC(=O)/C(C)=C\C=C\[C@H](C)[C@H](O)[C@@H](C)[C@@H](O)[C@@H](C)[C@H](OC(C)=O)[C@@H]1C [Rifampicin]
result: 3.7 ×10⁻⁶ cm/s

molecule: CN(C)[C@@H]1C(O)=C(C(N)=O)C(=O)[C@@]2(O)C(O)=C3C(=O)c4c(O)ccc(Cl)c4[C@@](C)(O)[C@H]3C[C@@H]12 [[…]]
result: < 1 ×10⁻⁶ cm/s

molecule: C[C@H]1C[C@H]2[C@@H]3CCC4=CC(=O)C=C[C@]4(C)[C@H]3C(=O)C[C@]2(C)[C@@]1(O)C(=O)CO [MEPREDNISONE]
result: 3.7 ×10⁻⁶ cm/s

molecule: CNc1ccccc1C(=O)O
result: 1.5 ×10⁻⁶ cm/s

molecule: CN[C@H](CC(C)C)C(=O)N[C@H]1C(=O)N[C@@H](CC(N)=O)C(=O)N[C@H]2C(=O)N[C@H]3C(=O)N[C@H](C(=O)N[C@H](C(=O)O)c4cc(O)cc(O)c4-c4cc3ccc4O)[C@H](O)c3ccc(c(Cl)c3)Oc3cc2cc(c3O[C@@H]2O[C@H](CO)[C@@H](O)[C@H](O)[C@H]2O[C@H]2C[C@](C)(N)[C@H](O)[C@H](C)O2)Oc2ccc(cc2Cl)[C@H]1O [VANCOMYCIN HYDROCHLORIDE]
result: < 1 ×10⁻⁶ cm/s

molecule: CN(C)[C@@H]1C(O)=C(C(N)=O)C(=O)[C@@]2(O)C(O)=C3C(=O)c4c(O)ccc(Cl)c4[C@@H](O)[C@H]3C[C@@H]12 [DEMECLOCYCLINE HYDROCHLORIDE]
result: 1.5 ×10⁻⁶ cm/s

molecule: CC(=O)O[C@@]12CO[C@@H]1C[C@H](O)[C@@]1(C)C(=O)[C@H](O)C3=C(C)[C@@H](O)C[C@@](O)([C@@H](OC(=O)c4ccccc4)[C@H]21)C3(C)C [10-DEACETYL BACCATIN III]
result: < 1 ×10⁻⁶ cm/s

molecule: CO[C@@H]1[C@H](O)[C@@H](CO)O[C@H]1n1cnc2c(=O)[nH]c(N)nc21 [2'-O-METHYLGUANOSINE]
result: < 1 ×10⁻⁶ cm/s

molecule: CC[C@H](C)C(=O)O[C@H]1C[C@H](O)C=C2C=C[C@H](C)[C@H](CC[C@@H](O)C[C@@H](O)CC(=O)O)[C@H]21 [PRAVASTATIN SODIUM]
result: < 1 ×10⁻⁶ cm/s

molecule: CC(=O)OCC(=O)[C@@]1(O)CC[C@H]2[C@@H]3CCC4=CC(=O)CC[C@]4(C)[C@H]3[C@@H](O)C[C@@]21C [HYDROCORTISONE ACETATE]
result: < 1 ×10⁻⁶ cm/s

molecule: Nc1c(O)cccc1C(=O)CC(N)C(=O)O (centres unmarked) [3-HYDROXYKYNURENINE]
result: < 1 ×10⁻⁶ cm/s

molecule: COc1ccc(C[C@H](N)C(=O)N[C@@H]2[C@@H](CO)OC(n3cnc4c(N(C)C)ncnc43)[C@@H]2O)cc1 (some centres unmarked) [PUROMYCIN MONOHYDROCHLORIDE]
result: < 1 ×10⁻⁶ cm/s

molecule: O=C(O)c1cccnc1 [NICOTINIC ACID]
result: < 1 ×10⁻⁶ cm/s

molecule: CC1=C(/C=C/C(C)=C/C=C/C(C)=C\C(=O)O)C(C)(C)CCC1 [ISOTRETINOIN]
result: 8.7 ×10⁻⁶ cm/s

molecule: CNCC(O)c1ccc(O)c(O)c1 (centres unmarked) [RACEPINEPHRINE HYDROCHLORIDE]
result: < 1 ×10⁻⁶ cm/s

molecule: Oc1ccc(O)cc1 [HYDROQUINONE]
result: < 1 ×10⁻⁶ cm/s

molecule: Cc1cc2nc3c(=O)[nH]c(=O)nc-3n(C[C@H](O)[C@H](O)[C@H](O)CO)c2cc1C [RIBOFLAVIN]
result: < 1 ×10⁻⁶ cm/s

From: paper PMC11876671
